Listing of entries alongside the reported CRF2R EC50.
Biological target: T1, CRF2R
T1 sequence (Q13324 whole entry, species assumed, looked up): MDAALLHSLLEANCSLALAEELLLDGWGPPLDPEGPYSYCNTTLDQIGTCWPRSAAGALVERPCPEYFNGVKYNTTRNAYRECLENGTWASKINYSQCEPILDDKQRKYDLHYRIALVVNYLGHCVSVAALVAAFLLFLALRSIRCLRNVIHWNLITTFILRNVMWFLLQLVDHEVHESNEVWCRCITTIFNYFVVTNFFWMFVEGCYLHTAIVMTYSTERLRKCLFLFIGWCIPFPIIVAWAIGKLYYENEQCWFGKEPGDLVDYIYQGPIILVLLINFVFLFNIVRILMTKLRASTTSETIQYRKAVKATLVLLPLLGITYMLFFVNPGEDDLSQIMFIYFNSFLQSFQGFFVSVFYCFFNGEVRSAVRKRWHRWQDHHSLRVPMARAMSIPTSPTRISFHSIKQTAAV
Test: cell-based or functional assay
Ends that are not written are not given here.
Measurement Type: CRF2R EC50 (nM)

binder="ZGPPISIDVPTYLLRKMIEIEKQEKEKQQAANNRLLLDTI (C-terminal amide) [SEQ ID NO 253]" measurement_type="CRF2R EC50" unit_descriptor=nM experimental_result=41.8
binder="IVLSLDVPIGLLQILLEKAAAEAEAAAKAAQEQILAHV-NH2 [SEQ ID NO 366]" measurement_type="CRF2R EC50" unit_descriptor=nM experimental_result=100
binder="DNPSLSIDLPYYLLRTLLELARTQSQRERAEQNAIIFASV-NH2 [SEQ ID NO 263]" measurement_type="CRF2R EC50" unit_descriptor=nM experimental_result=36.2
binder="ZGPPISIDLPFQLLRILIEIEKQEKEKQQAANNRLLLDTI (not fully specified; C-terminal amide) [SEQ ID NO 255]" measurement_type="CRF2R EC50" unit_descriptor=nM experimental_result=7
binder="ZGPPISIDLPFQLLRKVIEIEKQEKEKQQATTNARLLDRV (C-terminal amide) [SEQ ID NO 351]" measurement_type="CRF2R EC50" unit_descriptor=nM experimental_result=12.9
binder="ZGPPISIDLPTWLLRKVIEIEKQEKEKQQAANNARLLARI (C-terminal amide) [SEQ ID NO 291]" measurement_type="CRF2R EC50" unit_descriptor=nM experimental_result=100
binder="ZGPPISIDVPFQLLRKMIEIEKQEKEKQQAANNRLLLDTI (C-terminal amide) [SEQ ID NO 256]" measurement_type="CRF2R EC50" unit_descriptor=nM experimental_result=12.6
binder="DNPSLSIDLPLILLRTLLELEKTQSQRERAEQNAIIFASV-NH2 [SEQ ID NO 345]" measurement_type="CRF2R EC50" unit_descriptor=nM experimental_result=39.7
binder="ZGPPISIDLPQILLRKVIEIEKQEKEKQQAANNRLLLDTI (C-terminal amide) [SEQ ID NO 293]" measurement_type="CRF2R EC50" unit_descriptor=nM experimental_result=40.3
binder="ZGPPISIDLPYALLRKMIEIEKQEKEKQQAANNRLLLDTI (C-terminal amide) [SEQ ID NO 309]" measurement_type="CRF2R EC50" unit_descriptor=nM experimental_result=5.55
binder="ZGPPISIDLPTYLLRKMIEIEKQEKEKQQAANNALLLDTI (C-terminal amide) [SEQ ID NO 232]" measurement_type="CRF2R EC50" unit_descriptor=nM experimental_result=45.3
